- Test system: T-47D breast
- ASSAY DETAILS: NCI tumour cell line growth inhibition, 48 h; in the data active means GI50 below about 0.43 µM; inactive means the rest
Result category, one only: 1.0 = active, 0.0 = inactive

query: Field: outcome | Entry: O=c1cccc(C#CC#CCCCO)o1
result: 0.0

query: Field: outcome | Entry: COc1ccc2c(c1)/C(=C\c1c[nH]c3ccc(OC)cc13)C(=O)N2
result: 0.0

query: Field: outcome | Entry: Nc1cc2cccc[n+]2c2cccc(Cl)c12
result: 0.0

query: Field: outcome | Entry: CC1=C(C(=O)Nc2ccc(F)c(Cl)c2)C(c2ccccc2O)NC(=O)N1 (configuration not stated)
result: 0.0

query: Field: outcome | Entry: N/C(=N\c1nc2ccccc2s1)NC(=NC1CCCCC1)NC1CCCCC1
result: 0.0

query: Field: outcome | Entry: COc1ccc2c(c1)C(=O)c1c-2n(CCCN)c(=O)c2cc([N+](=O)[O-])ccc12
result: 1.0

query: Field: outcome | Entry: N=C(N)c1ccc(-c2ccc(-c3ccc(Cl)cc3)s2)nc1
result: 0.0

----------
- System: NCI-H522 lung
- ASSAY DETAILS: NCI tumour cell line growth inhibition, 48 h
READOUT KIND: TGI

{"COMPOUND": "O=C1c2ccccc2C(=O)N1C1(C(=O)NC2(C(=O)O)CCCC2)CCCC1", "READOUT KIND": "TGI", "REPORTED VALUE": "> 100 µM"}
{"COMPOUND": "CC(=O)Nc1ccc(C(=O)N2N=C(C)/C(=C/c3cccc([N+](=O)[O-])c3)C2=O)cc1", "READOUT KIND": "TGI", "REPORTED VALUE": "> 100 µM"}
{"COMPOUND": "Cc1nn(C)c2nc3ccc(Cl)cc3c(-c3ccccc3)c12", "READOUT KIND": "TGI", "REPORTED VALUE": "> 100 µM"}

Now turn to the next compound.
query: Kindly indicate its recorded TGI. Item: COc1cc(/C=C2\Cc3cc(OC)c(OC)cc3C2=O)cc(OC)c1
result: > 100 µM

----------
- Tested on: HT29 colon
- ASSAY DETAILS: NCI tumour cell line growth inhibition, 48 h
Measured TGI, listed per entry for reference.

These recorded examples may help you get a feel for the data.
{"COMPOUND": "O=c1cccc(C#CC#CCCCO)o1", "REPORTED VALUE": "> 100 µM"}
{"COMPOUND": "Cc1cccc2c(Nc3ccc(NS(C)(=O)=O)cc3)c3ccc([N+](=O)[O-])cc3nc12", "REPORTED VALUE": "3.47 µM"}
{"COMPOUND": "O=C(N/N=C/c1ccc(Cl)cc1)c1cc(I)cc(I)c1O", "REPORTED VALUE": "> 100 µM"}

query: State the measured TGI (HT29 colon) of CCC1C(=O)OCc2c1cc1n(c2=O)C(CC)c2c-1nc1ccccc1c2Cl (stereo unspecified)
result: 77.1 µM

query: State the measured TGI (HT29 colon) of C=C1C(=O)O[C@H]2[C@H]1CC/C(CNC(=O)/C=C/c1ccccc1)=C\CC[C@@]1(C)O[C@@H]21
result: 3.04 µM

query: State the measured TGI (HT29 colon) of N#CC(C#N)=C(N)/C(C#N)=C/c1ccc2[nH]ccc2c1
result: > 100 µM

query: State the measured TGI (HT29 colon) of CC(=O)Nc1ccc(C(=O)NN2C(=O)C(Cl)C2c2ccc(O)cc2)cc1 (stereo unspecified)
result: > 100 µM

query: State the measured TGI (HT29 colon) of COc1ccc2c(-c3ccc(OCCN(C)C)cc3)c(Oc3ccc(Cl)cc3)c(=O)oc2c1
result: > 46.7 µM

query: State the measured TGI (HT29 colon) of Nc1ccc(-c2nc3ccc(F)cc3s2)cc1
result: > 100 µM

query: State the measured TGI (HT29 colon) of Cc1ccc(NC(=O)CC2SC(N)=NC2=O)cc1C (stereo unspecified)
result: > 100 µM

query: State the measured TGI (HT29 colon) of COc1cc([C@H]2Oc3c(OC)cc(CCCO)cc3[C@@H]2CO)ccc1O
result: > 100 µM

----------
- System: MALME-3M melanoma
- ASSAY DETAILS: NCI tumour cell line growth inhibition, 48 h
READOUT KIND: TGI

{"SMILES STRUCTURE": "COC(=O)/C=C/c1cc(OC)c2oc(-c3ccc(OC)c(OC)c3)c(C(=O)OC)c2c1", "REPORTED VALUE": "> 100 µM"}
{"SMILES STRUCTURE": "O=S1(=O)C(c2ccccc2)=C(O)c2ccccc21", "REPORTED VALUE": "> 100 µM"}

Now turn to the next compound.
query: Kindly indicate its recorded TGI. Item: CC(=O)c1ccc(N2CCN(C3=CC(=O)c4c(O)ccc(O)c4C3=O)CC2)cc1
result: > 100 µM

----------
- Tested on: NCI-H460 lung
Result category, one only: 1 for active, -1 for inactive

{"MOLECULE": "CC1=C(C(=O)Nc2ccc(F)c(Cl)c2)C(c2ccccc2O)NC(=O)N1 (stereo unspecified)", "TESTED TARGET": "NCI-H460 lung", "ASSIGNED CLASS": -1}
{"MOLECULE": "C[C@H]1c2ccccc2CN1CCCOc1cc2c(cc1OCC1CC1)C1(CCCC1)C(N)=N2", "TESTED TARGET": "NCI-H460 lung", "ASSIGNED CLASS": -1}
{"MOLECULE": "CCN(CC)CCCC(C)Nc1c(-c2ccccc2)cnc2cc(Cl)ccc12 (stereo unspecified)", "TESTED TARGET": "NCI-H460 lung", "ASSIGNED CLASS": -1}

query: Field: outcome | Entry: CCSc1nc(N)c(C#N)c(-c2ccco2)c1C#N
result: -1

query: Field: outcome | Entry: O=C(Nc1cnc(C(F)(F)F)cn1)c1cc(Cl)ccc1O
result: 1

query: Field: outcome | Entry: Nc1n[nH]c(N)c1N=Nc1ccc(O)cc1
result: -1

----------
Measured TGI, listed per entry for reference.
- Test system: MDA-N
- ASSAY DETAILS: NCI tumour cell line growth inhibition, 48 h

{"COMPOUND": "[N-]=[N+]=NC[C@H]1OCO[C@H](CN=[N+]=[N-])[C@H]2OCCOCCOc3ccccc3OCCOCCO[C@@H]21", "TGI": "> 100 µM"}

query: Kindly indicate its recorded TGI. Item: CC(=O)CC(C)(C)NC(=O)[C@@]1(O)CC[C@H]2[C@@H]3CCC4=CC(=O)CC[C@@H]4[C@H]3CC[C@@]21C
result: > 100 µM

query: Kindly indicate its recorded TGI. Item: CC1(C)CCCCCCCCCC(C)(CCCCCCCCCCCCO)C1=O (stereo not given)
result: 33.7 µM

----------
- Tested on: T-47D breast
- ASSAY DETAILS: NCI tumour cell line growth inhibition, 48 h
Measured TGI, listed per entry for reference.
The reply should contain only the number, in µM.

{"COMPOUND": "NNc1c2ccccc2nc2ccccc12", "TESTED TARGET": "T-47D breast", "REPORTED VALUE": 73.4}
{"COMPOUND": "CC/C=C\\C/C=C/C=C1/C(=O)C=C[C@@H]1C/C=C\\CCCC(=O)OC", "TESTED TARGET": "T-47D breast", "REPORTED VALUE": 24}

query: Kindly indicate its recorded TGI. Item: COc1ccc2c(c1)/C(=C\c1c[nH]c3ccc(OC)cc13)C(=O)N2
result: 13.4

query: Kindly indicate its recorded TGI. Item: O=C1CCC(N2C(=O)c3cccc(NCCCC4CCN(CCNC(=O)c5cc6c(o5)C(=O)c5ccccc5C6=O)CC4)c3C2=O)C(=O)N1 (stereo unspecified)
result: 11

----------
Measured TGI, listed per entry for reference.
- Test system: OVCAR-8 ovarian
- ASSAY DETAILS: NCI tumour cell line growth inhibition, 48 h

{"COMPOUND": "Cc1nn(C(=O)c2ccncc2)c2c1C(c1cccc([N+](=O)[O-])c1)SC(N)=N2 (stereo unspecified)", "TGI": "> 10 µM"}
{"COMPOUND": "CC1=NN(C(=O)c2ccc(Cl)cc2)C(=O)/C1=C/c1ccc(Cl)cc1", "TGI": "> 100 µM"}
{"COMPOUND": "CN(CCc1ccc(Cl)c(Cl)c1)CCN(C)CCN1CCCC1", "TGI": "62 µM"}

query: Kindly indicate its recorded TGI. Item: Cn1nnc2c(C(N)=O)ncn2c1=O
result: > 100 µM

query: Kindly indicate its recorded TGI. Item: C=C(Br)CNCC(=C)Br
result: > 100 µM

query: Kindly indicate its recorded TGI. Item: COP(=O)(OC)C(NC=O)P(=O)(OC)OC
result: > 100 µM

query: Kindly indicate its recorded TGI. Item: CCCCc1c2c(nc3c1CCc1cc4cc5c(nc4nc1-3)-c1nc3c(c(CCCC)c1CC5)CCC/C3=C\c1ccccc1)/C(=C/c1ccccc1)CCC2
result: > 100 µM

query: Kindly indicate its recorded TGI. Item: CCN(CC)CCC(CNc1c(C)cnc2cc(Cl)ccc12)c1ccc(Cl)cc1 (stereo unspecified)
result: 25.5 µM

query: Kindly indicate its recorded TGI. Item: CN1CCN(c2cc3nc4ccccc4n(-c4ccc(Cl)cc4)c-3cc2=N)CC1
result: 38.4 µM

query: Kindly indicate its recorded TGI. Item: O=C(NCC(=O)N1CCOC1=O)OCc1ccccc1
result: > 100 µM

query: Kindly indicate its recorded TGI. Item: Cc1ccc(S(=O)(=O)c2ccc([N+](=O)[O-])o2)cc1
result: 1.82 µM

// data source = PubChem BioAssay (NCI)
